Biological target: GMPPNP-loaded H-Ras or GTP-loaded K-Ras
Assay: FP competition, displacement of probe R4007 from Ras
*1 amine or outer side, *2 acyl side, *3 side chain or, on linkers, in order; H or OH if unused. Bridges are numbered along the chain shown (N, C = ends). Where no end group is shown, it is not given here. [ ]: non-standard residue; d: D form. ξ: configuration not given here. DAPTZAC3 = (S)-3-(4-(3-acrylamidopropyl)-1H-1,2,3-triazol-1-yl)-2-aminopropanoic acid, C=CC(=O)NCCCc1cn(C[C@H](N[*:1])C(=O)[*:2])nn1; Trp(7-aza) = N[C@@H](Cc1c[nH]c2ncccc12)C(=O)O; NMePhe(4-F) = CN[C@@H](Cc1ccc(F)cc1)C(=O)O; mXylylene = c1cc(C[*:1])cc(C[*:2])c1; dPhg = N[C@@H](C(=O)O)c1ccccc1; Phg = N[C@H](C(=O)O)c1ccccc1; Tle = CC(C)(C)[C@H](N)C(=O)O; ξPhg = NC(C(=O)O)c1ccccc1; NMeA = CN[C@@H](C)C(=O)O; Pra = C#CC[C@H](N)C(=O)O; Nva = CCC[C@H](N)C(=O)O; PEG2 = NCCOCCOCCC(=O)O; Ahx = NCCCCCC(=O)O; Sar = CNCC(=O)O
Endpoint Label: pIC50
The meaning of pIC50 here: minus log10 of the concentration in molar units.

Known pIC50 results, listed for orientation:
| Binder | pIC50 |
| --- | --- |
| Ac-[Nva]CY[Tle]K(4‑(dimethylamino)benzoyl)H[NMeA][Phg][Trp(7-aza)]Y[NMePhe(4-F)][Sar]C-NH2 (linker 2-13 via mXylylene) [R4134] | 6.46 |
| Ac-[Nva]SY[Tle]A[DAPTZAC3][NMeA][ξPhg][Trp(7-aza)]Y[NMePhe(4-F)][Sar]S-NH2 (also: places Phg, 7-azaTrp, NMe-4-F-Phe, Sar at 9, 10, 12, 13) [R4148] | 5.22 |
| Ac-[Nva]CY[Tle]KH[NMeA][dPhg][Trp(7-aza)]Y[NMePhe(4-F)][NMeA]C-NH2 (linker 2-13 via mXylylene; SMILES CCC[C@H](NC(C)=O)C(=O)N[C@H]1CSCc2cccc(c2)CSC[C@@H](C(N)=O)NC(=O)[C@H](C)N(C)C(=O)[C@H](Cc2ccc(F)cc2)N(C)C(=O)[C@H](Cc2ccc(O)cc2)NC(=O)[C@H](Cc2c[nH]c3ncccc23)NC(=O)[C@@H](c2ccccc2)NC(=O)[C@H](C)N(C)C(=O)[C@H](Cc2c[nH]cn2)NC(=O)[C@H](CCCCN)NC(=O)[C@H](C(C)(C)C)NC(=O)[C@H](Cc2ccc(O)cc2)NC1=O) [R4121] | 7.14 |
| cyclo([Ahx]Y[Tle]KH[NMeA][Phg][Trp(7-aza)]Y[NMePhe(4-F)][Sar][Pra]) (SMILES C#CC[C@@H]1NC(=O)CN(C)C(=O)[C@H](Cc2ccc(F)cc2)N(C)C(=O)[C@H](Cc2ccc(O)cc2)NC(=O)[C@H](Cc2c[nH]c3ncccc23)NC(=O)[C@H](c2ccccc2)NC(=O)[C@H](C)N(C)C(=O)[C@H](Cc2c[nH]cn2)NC(=O)[C@H](CCCCN)NC(=O)[C@H](C(C)(C)C)NC(=O)[C@H](Cc2ccc(O)cc2)NC(=O)CCCCCNC1=O) [R4137] | 6.39 |
| [Nva]CY[Tle]KH[NMeA][Phg][Trp(7-aza)]Y[NMePhe(4-F)][Sar]C[dS]KGCVIM (linker 2-13 via mXylylene) [R4114] | 7.49 |

Please turn your attention to the following entry.
Lab note: measured pIC50 of cyclo([PEG2]Y[Tle]KH[NMeA][Phg][Trp(7-aza)]Y[NMePhe(4-F)][Sar]) (SMILES C[C@H]1C(=O)N[C@@H](c2ccccc2)C(=O)N[C@@H](Cc2c[nH]c3ncccc23)C(=O)N[C@@H](Cc2ccc(O)cc2)C(=O)N(C)[C@@H](Cc2ccc(F)cc2)C(=O)N(C)CC(=O)NCCOCCOCCC(=O)N[C@@H](Cc2ccc(O)cc2)C(=O)N[C@@H](C(C)(C)C)C(=O)N[C@@H](CCCCN)C(=O)N[C@@H](Cc2c[nH]cn2)C(=O)N1C) [R4124] was 7.05
